Collected TGI values appear next to each entry.
- System: EKVX NSCLC
- Procedure Details: NCI tumour cell line growth inhibition, 48 h

These recorded examples may help you get a feel for the data.
| Compound | Tested Target | TGI |
| --- | --- | --- |
| CC/C(=C(/c1ccc(Cl)cc1)c1ccc(OCCCN(C)C)cc1)c1ccc(OC)cc1 | EKVX NSCLC | 12.6 µM |
| CCOC(=O)C(C(=O)OCC)C(=S)NC1OC(COC(C)=O)C(OC(C)=O)C(OC(C)=O)C1OC(C)=O (stereo not given) | EKVX NSCLC | > 100 µM |
| CC(=O)Oc1cc(OC(C)=O)c(OC(C)=O)c2c1CC1C(=O)C3(CCc4ccccc43)C(=O)C1C2 (stereo not given) | EKVX NSCLC | 37.6 µM |
| Nc1c(C(=O)Nc2cccc3ccccc23)sc2nc3c(cc12)CCCCCC3 | EKVX NSCLC | > 50 µM |

Consider the additional compound presented here.
# value of TGI, EKVX NSCLC, item CC12CCC(C)(c3cc(O)c(O)cc31)c1cc(O)c(O)cc12 = 56.3 µM

----------
- Tested on: HL-60(TB) leukemia
- Procedure Details: NCI tumour cell line growth inhibition, 48 h
Readout Name: GI50

| Compound | GI50 |
| --- | --- |
| Nc1c2c(c(O)c3c1=C(CO)C=N3)=NCCS2=O (stereo not drawn) | 1.94 µM |
| Nc1nc(-c2ccccc2Cl)cc(-c2ccc(Cl)cc2Cl)n1 | 3.14 µM |
| COc1cc(Cl)c(C)cc1NC(=O)c1cc2ccccc2cc1O | 1.89 µM |
| COc1ccc(S(=O)(=O)Nc2c(/C=C\c3cc(OC)c(OC)c(OC)c3)ccc(OC)c2O)cc1OC | 0.338 µM |
| N[C@@H](Cc1ccc(N(CCCl)CCCl)cc1)C(=O)O | 6.96 µM |
| Cn1cc(C2=C(c3cn(CCCN/C(N)=N\[N+](=O)[O-])c4ccccc34)C(=O)NC2=O)c2ccccc21 | 1.23 µM |
| COc1cccc(/C=N/[N-]C(N)=O)c1[O-].[Cu+2].c1ccncc1 | 26.5 µM |
| COc1cc(/C=C2\CCCC3=C2N=C2SC=NN2C3c2cc(OC)c(OC)c(OC)c2)cc(OC)c1OC (stereo not drawn) | 2.93 µM |

# GI50 of COc1ccc(-n2cc(-c3ccc(F)cc3)[nH]c2=O)cc1OC = > 100 µM

For record Cc1cnc2n(c1=O)Cc1ccccc1CO2 the listed GI50 is 15.5 µM

Record O=C1COCCN1c1ccc(NCc2cn(Cc3ccc(F)cc3)c3ccccc23)cc1 . Reported GI50: 4.8 µM

Record O=C(/C=C/c1ccco1)c1cccc(Nc2nc(Nc3ccccc3)nc(Nc3ccccc3)n2)c1 , field GI50: > 29.6 µM

// field: GI50; key: O=c1c(Br)ccc(Br)cc1Br ; value = 0.662 µM

----------
# TGI values compiled below
- Tested on: A549 NSCLC
- Procedure Details: NCI tumour cell line growth inhibition, 48 h

| Compound | Tested Target | Result |
| --- | --- | --- |
| O=c1n(CC2CO2)c2ccccc2n1CC1CS1 (stereo not given) | A549 NSCLC | > 100 µM |
| C[C@@H](Br)[C@@H]1CC[C@H]2c3[nH]c4ccccc4c3CCN2C1 | A549 NSCLC | > 100 µM |
| C/C(=N\O)c1ccc(Nc2cc(-c3ccccc3)nc3c(O)cccc23)cc1 | A549 NSCLC | 31 µM |
| Cn1c(=O)ccc2cc(C(=O)c3ccccc3)ccc21 | A549 NSCLC | > 100 µM |
| C[C@]12CC[C@H](O)CC1CCC[C@@H]2O (stereo not given in full) | A549 NSCLC | > 100 µM |

Entry CC(C)N=C(NC#N)NS(=O)(=O)c1cnccc1NC1CCCCCCC1 : TGI on A549 NSCLC = > 100 µM

# COc1ccc(/C=C2\CCC(CN(C)C)C2=O)cc1 (stereo not given) with A549 NSCLC: TGI is 30.6 µM

TGI for A549 NSCLC with input CCOC(=O)CCNC(=O)c1cc(C)cc2c1Oc1c(cc(C)cc1C(=O)NCCC(=O)OCC)S2 equals > 100 µM

Lab entry: A549 NSCLC assay, compound [B]C(=O)NC(CC(C)C)C(=O)NC1c2ccsc2C(=O)C1O (stereo not given) (tested in a mixture with another compound) , TGI = > 100 µM

Reported A549 NSCLC TGI for item COc1ccc(C(CC(=O)c2ccc(O)cc2)C(C(=O)c2ccc(O)cc2)C(c2ccc(OC)cc2)C2C(=O)NC(=S)NC2=O)cc1 (stereo not given) was 89.9 µM

Test item CSc1c(C#N)c(=O)n(N)c2n[nH]c(C)c12 ; A549 NSCLC; reported TGI was > 100 µM

Reading of TGI for NC(=O)NC(=O)c1cccc(C(=O)NC(N)=O)n1 with A549 NSCLC: > 100 µM

// assay A549 NSCLC, entry NCCCCNCCCNC(=O)c1csc(-c2nc(CCN)sc2Cl)n1 , TGI value = > 100 µM

The reported TGI value, A549 NSCLC, for COC(=O)/C=C/[C@H]1[C@H](C)N1S(=O)(=O)c1ccc(C)cc1 (stereo not given in full) reads > 100 µM

For the compound C[C@H](OC(=O)/C=C/c1ccc(O)c(O)c1)[C@H](C)OC(=O)/C=C/c1ccc(O)c(O)c1 , the measured TGI on A549 NSCLC was > 100 µM

The measured TGI that COc1cc(/C=C2\CCCC3=C2N=C2SC=NN2C3c2cc(OC)c(OC)c(OC)c2)cc(OC)c1OC (stereo not given) showed for A549 NSCLC is > 100 µM

Entry COc1ccc(S(=O)(=O)Nc2c(/C=C\c3cc(OC)c(OC)c(OC)c3)ccc(OC)c2O)cc1OC : TGI on A549 NSCLC = > 100 µM

# OC1/C(=C/c2ccccc2)CNC/C1=C\c1ccccc1 (stereo not given) with A549 NSCLC: TGI is > 100 µM

A549 NSCLC TGI of Cc1nc2c(ccc3[nH]c4ccccc4c32)s1 is > 100 µM

Measured TGI (A549 NSCLC), entry c1ccc2c(c1)-c1nc3ccccc3cc1C2N1CCOCC1 (stereo not given) : > 100 µM

TGI of CCOC(=O)/C(C#N)=C/c1[nH]c(C)c(C)c1C , assay on A549 NSCLC, is > 100 µM

----------
- Test system: BT-549 breast
- Procedure Details: NCI tumour cell line growth inhibition, 48 h
Readout Name: TGI (µM)
Provide the reading as a plain figure in µM.

| Smiles Data | Measured Number |
| --- | --- |
| COc1cc(/C=C/C(=O)c2ccc(SC)cc2)cc(OC)c1OC | 24.6 |
| O=C(CCCN1CCC(Nc2ccc(F)cc2)(c2nnnn2C2CCCCC2)CC1)c1ccc(F)cc1 | 33.1 |
| O=c1c(Br)ccc(Br)cc1Br | 3.98 |
| Cc1nc2c(ccc3[nH]c4ccccc4c32)s1 | 57.3 |
| CCCCCCOc1ccc(/C=N/Nc2cc(C)nc3ccc(Br)cc23)cc1 | 3.91 |

Briefly, TGI measured for C[C@H](OC(=O)/C=C/c1ccc(O)c(O)c1)[C@H](C)OC(=O)/C=C/c1ccc(O)c(O)c1 : 24.1

The measured TGI associated with CCN(CC)CCCNc1c2cc(OC)ccc2nc2cccc([N+](=O)[O-])c12 reads 0.49

Lab book: TGI of COc1ccc(-c2nn(C(=O)c3cc(OC)c(OC)c(OC)c3)c3cc(N)ccc23)cc1 noted as 9.56

Per the records, this compound ( O=C1COCCN1c1ccc(NCc2cn(Cc3ccc(F)cc3)c3ccccc23)cc1 ) has TGI equal to 22.4

----------
Entries and their TGI values follow.
- Tested on: SK-MEL-2 melanoma
- Procedure Details: NCI tumour cell line growth inhibition, 48 h

| Compound | Tested Target | Result |
| --- | --- | --- |
| COc1cc2oc(=O)cc(C)c2c(OC)c1OC | SK-MEL-2 melanoma | > 100 µM |
| Nc1nc(N)c(N=Nc2ccc([As](=O)(O)O)c(O)c2)c(N)n1 | SK-MEL-2 melanoma | > 59.9 µM |
| COc1ccc(OC/C(N=Cc2cccnc2)=N/NC(=O)c2ccncc2)cc1 | SK-MEL-2 melanoma | > 100 µM |
| COc1ccc(S(=O)(=O)Nc2c(/C=C\c3cc(OC)c(OC)c(OC)c3)ccc(OC)c2O)cc1OC | SK-MEL-2 melanoma | > 100 µM |
| CC(=O)NC1C(OCc2ccccc2)OC(COC(=O)CCCCCCCCCCNC(=O)CCNc2ccc([N+](=O)[O-])c3[nH]c4ccc(O)cc4c(=O)c23)C(O)C1OC(C)C(=O)N[C@H](C(=O)N[C@H](CCC(=O)O)C(N)=O)C(C)C (stereo not given in full) | SK-MEL-2 melanoma | > 100 µM |
| O=C1COCCN1c1ccc(NCc2cn(Cc3ccc(F)cc3)c3ccccc23)cc1 | SK-MEL-2 melanoma | 6.06 µM |

The compound C[C@H](OC(=O)/C=C/c1ccc(O)c(O)c1)[C@H](C)OC(=O)/C=C/c1ccc(O)c(O)c1 on SK-MEL-2 melanoma: TGI was 50.3 µM

// compound O=c1c(Br)ccc(Br)cc1Br , assay SK-MEL-2 melanoma, TGI value: 5.85 µM

CC(=O)c1ccc(-c2ccc(C(C)=O)s2)s1 tested on SK-MEL-2 melanoma gave TGI: > 100 µM

Entry O=C1CSC2(CC(/C=C/c3ccccc3[N+](=O)[O-])=NN2c2cccc(S(=O)(=O)O)c2)N1c1nc2ccccc2s1 (stereo not given) , tested on SK-MEL-2 melanoma, has a reported TGI of 35.4 µM

Tested on SK-MEL-2 melanoma: COc1ccc2oc(=O)c(-c3nc4ccccc4s3)cc2c1 . Observed TGI: > 100 µM

TGI value, target or system SK-MEL-2 melanoma, for Cc1nc2c(ccc3[nH]c4ccccc4c32)s1 : 54.7 µM

Summary line: CC(=O)O[C@H]1CC[C@@]2(C)[C@@H](CC[C@@H]3[C@@H]2CC(=O)[C@@]2(C)[C@H]3C[C@@H]3CC(C)=CC(=O)[C@@H]32)C1 , SK-MEL-2 melanoma, reported TGI = > 100 µM

Tested on SK-MEL-2 melanoma: NC(CSC(c1ccccc1)(c1ccccc1)c1ccc(Br)cc1)C(=O)O (stereo not given) . Observed TGI: > 78.2 µM

TGI on SK-MEL-2 melanoma for O=[N+]([O-])C(=C(\Cl)NCCO)/C(Cl)=C(/Cl)Br is 4.14 µM
